# credit: patent US20250376472A1

# Experimental Target: AgrA (Staphylococcus aureus, UniProt P0A0I7)
# Construct: endogenous in cells; host or cells: S. aureus USA300 strain UAMS-1625 carrying a P3-lacZ reporter plasmid
# Sequence (P0A0I7 whole entry): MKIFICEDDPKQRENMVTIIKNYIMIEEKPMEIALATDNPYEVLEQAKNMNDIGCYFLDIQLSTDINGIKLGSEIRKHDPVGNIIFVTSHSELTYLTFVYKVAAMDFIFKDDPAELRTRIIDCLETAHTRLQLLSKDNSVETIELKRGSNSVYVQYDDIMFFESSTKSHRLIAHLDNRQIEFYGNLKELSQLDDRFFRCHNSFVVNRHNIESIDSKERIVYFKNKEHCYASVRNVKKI
# Assay Protocol: cell-based
# Design: species or system S. aureus
# Applied Conditions: IC50 without HSA, LB medium, no human serum albumin, 18 hours incubation
Could you please report measured IC50 for the items listed next?

Problem: Consider the molecule Cc1ccc(S(=O)(=O)c2nnn3c2[nH]c(=O)c2ccc(N4CCN(CC(=O)NCCCN5CCOCC5)CC4)cc23)c(C)c1 [Compound 92] . State its measured IC50.
Result: 1610 to 8030 nM

Problem: Consider the molecule Cc1ccc(S(=O)(=O)c2nnn3c2[nH]c(=O)c2ccc(N4CCN(CC(=O)N5CCN(C)CC5)CC4)cc23)c(C)c1 [Compound 58] . State its measured IC50.
Result: < 1730 nM

Problem: Consider the molecule CCCNC(=O)CN1CCN(c2ccc3c(=O)[nH]c4c(S(=O)(=O)c5ccc(C)cc5C)nnn4c3c2)CC1 [Compound 5] . State its measured IC50.
Result: < 1860 nM

Problem: Consider the molecule Cc1ccc(S(=O)(=O)c2nnn3c2[nH]c(=O)c2ccc(N4CCN(CC(=O)N5CCCC(CN)C5)CC4)cc23)c(C)c1 (stereo not shown) [Compound 144] . State its measured IC50.
Result: 1690 to 8440 nM

###

# Experimental Target: AgrA (Staphylococcus aureus)
# Construct: endogenous in cells; host or cells: S. aureus USA300 strain UAMS-1625 carrying a P3-lacZ reporter plasmid
# Assay Protocol: cell-based
# Parameters: species or system S. aureus
# Applied Conditions: IC50 without HSA, LB medium, no human serum albumin, 18 hours incubation
# Procedure: The inventive compounds are 3-(phenylsulfonyl)-[1,2,3]triazolo[1,5a]quinazolin-5(4h)-one derivatives comprising an N-bound piperazine or homopiperazine at the 8-position of the [1,2,3]triazolo[1,5a]quinazolin-5(4h)-one core, further substituted (on the second nitrogen atom) by an (optionally substituted) acetyl or propionyl amide group. […] The β-galactosidase produced by expression of lacZ cleaved the MUG into galactopyranose and 4-methylumbelliferone, which was measured by fluorescence. […]
Could you please report measured IC50 for the items listed next?

Problem: Consider the compound Cc1ccc(S(=O)(=O)c2nnn3c2[nH]c(=O)c2ccc(N4CCN(CC(=O)NC5CNC5)CC4)cc23)c(C)c1 [Compound 138] . State its measured IC50.
Result: 1820 to 9080 nM

Problem: Consider the compound Cc1ccc(S(=O)(=O)c2nnn3c2[nH]c(=O)c2ccc(N4CCN(CC(=O)NCCN5CCN(C)CC5)CC4)cc23)c(C)c1 [Compound 89] . State its measured IC50.
Result: 1610 to 8040 nM

Problem: Consider the compound Cc1ccc(S(=O)(=O)c2nnn3c2[nH]c(=O)c2ccc(N4CCC4)cc23)c(C)c1 [Compound 45 of WO 2020/109350, reference compound] . State its measured IC50.
Result: < 2440 nM

Problem: Consider the compound Cc1ccc(S(=O)(=O)c2nnn3c2[nH]c(=O)c2ccc(N4CCN(CC(=O)N5CCCCC5CN)CC4)cc23)c(C)c1 (stereo not shown) [Compound 145] . State its measured IC50.
Result: 1690 to 8440 nM

Problem: Consider the compound CCCCCNC(=O)CN1CCN(c2ccc3c(=O)[nH]c4c(S(=O)(=O)c5ccc(C)cc5C)nnn4c3c2)CC1 [Compound 10] . State its measured IC50.
Result: < 1770 nM

Problem: Consider the compound Cc1ccc(S(=O)(=O)c2nnn3c2[nH]c(=O)c2ccc(N4CCN(CC(=O)N5CC(N)C5)CC4)cc23)c(C)c1 [Compound 139] . State its measured IC50.
Result: 1820 to 9080 nM

Problem: Consider the compound Cc1ccc(S(=O)(=O)c2nnn3c2[nH]c(=O)c2ccc(N4CCN(CC(=O)NCC(C)C)CC4)cc23)c(C)c1 [Compound 7] . State its measured IC50.
Result: < 1810 nM

Problem: Consider the compound Cc1ccc(S(=O)(=O)c2nnn3c2[nH]c(=O)c2ccc(N4CCN(CC(=O)N5CCN6CCCC6C5)CC4)cc23)c(C)c1 (stereo not shown) [Compound 130] . State its measured IC50.
Result: < 1650 nM

Problem: Consider the compound Cc1ccc(S(=O)(=O)c2nnn3c2[nH]c(=O)c2ccc(N4CCN(CC(=O)N(C)C5CCCCC5)CC4)cc23)c(C)c1 [Compound 39] . State its measured IC50.
Result: < 1690 nM

Problem: Consider the compound Cc1ccc(S(=O)(=O)c2nnn3c2[nH]c(=O)c2ccc(N4CCN(CC(=O)NCCN5CCCC5)CC4)cc23)c(C)c1 [Compound 94] . State its measured IC50.
Result: 1690 to 8440 nM

Problem: Consider the compound Cc1ccc(S(=O)(=O)c2nnn3c2[nH]c(=O)c2ccc(N4CCN(CC(=O)NCCCCO)CC4)cc23)c(C)c1 [Compound 20] . State its measured IC50.
Result: < 1760 nM

Problem: Consider the compound Cc1ccc(S(=O)(=O)c2nnn3c2[nH]c(=O)c2ccc(N4CCN(CC(=O)NCCc5ccccc5)CC4)cc23)c(C)c1 [Compound 109] . State its measured IC50.
Result: < 1670 nM

Problem: Consider the compound Cc1ccc(S(=O)(=O)c2nnn3c2[nH]c(=O)c2ccc(N4CCN(CC(=O)N5CCC(N)C5)CC4)cc23)c(C)c1 (stereo not shown) [Compound 135] . State its measured IC50.
Result: 1770 to 8850 nM
